Where do the numbers come from? From paper PMC4357015.

# test_target: PvPMT (Plasmodium vivax, UniProt A5K867)
# Sequence (A5K867 1-264): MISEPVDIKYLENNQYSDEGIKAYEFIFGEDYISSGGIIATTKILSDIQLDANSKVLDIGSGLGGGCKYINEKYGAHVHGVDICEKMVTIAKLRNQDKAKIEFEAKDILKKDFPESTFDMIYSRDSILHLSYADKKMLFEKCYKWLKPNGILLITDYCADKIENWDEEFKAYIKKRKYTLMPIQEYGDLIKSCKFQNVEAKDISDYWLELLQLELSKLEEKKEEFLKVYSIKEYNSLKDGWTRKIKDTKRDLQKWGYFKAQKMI
# assay_info: radiometric PMT transmethylation assay, inhibition of PvPMT
# Format: biochemical
pIC50: −log10 of the molar value.
value_kind: pIC50

compound	assay_result
CCN(CC)CCCC(C)Nc1ccnc2cc(Cl)ccc12 (stereo not shown) [CQ, chloroquine]	3.84

----------
# test_target: PkPMT (Plasmodium knowlesi, UniProt A0A384KJX3)
# Sequence (A0A384KJX3 1-264): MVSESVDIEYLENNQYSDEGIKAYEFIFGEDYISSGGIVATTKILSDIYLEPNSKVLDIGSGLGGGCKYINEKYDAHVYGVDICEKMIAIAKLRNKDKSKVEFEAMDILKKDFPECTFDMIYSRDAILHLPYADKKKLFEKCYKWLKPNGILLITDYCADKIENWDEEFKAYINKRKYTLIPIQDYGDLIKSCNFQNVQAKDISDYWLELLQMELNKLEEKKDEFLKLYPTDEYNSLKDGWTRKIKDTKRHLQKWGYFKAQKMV
# assay_info: radiometric PMT transmethylation assay, inhibition of PkPMT
# Assay type: biochemical
pIC50: −log10 of the molar value.
value_kind: pIC50

compound	value_kind	assay_result
CCN(CC)CCCC(C)Nc1ccnc2cc(Cl)ccc12 (stereo not shown)	pIC50	3.01
